Hey, just so you know, these numbers are from PubChem BioAssay (NCI).

Measured TGI values are reported for all entries that follow.
- System: IGROV1 ovarian
- testSummary: NCI tumour cell line growth inhibition, 48 h
*1 amine or outer side, *2 acyl side, *3 side chain or, on linkers, in order; H or OH if unused. Where a SMILES comes first, the peptide text is derived from it. Bridges are numbered along the chain shown (N, C = ends). [ ]: non-standard residue; d: D form. The star is where a group is joined. X34 = O=C(C(CCCCNO[*:3])N[*:1])[*:2]; Fmoc = O=C(OCC1c2ccccc2-c2ccccc21)*

compound | TGI
Clc1ccc(C[P+]2(c3ccccc3)CCCCC2)cc1 | > 100 µM
N#Cc1c(N)nc(N2CCOCC2)c(C#N)c1-c1ccccn1 | > 100 µM
O=C(CCn1[nH]c(=O)c(Cl)c(Cl)c1=O)NNC(=O)C[n+]1ccccc1 | > 100 µM
N=CN=CC(=S)O[C@@H]1C(=O)N2CCC[C@@]23CCCC[C@@H]13 | > 12.5 µM
Nc1ccc(-c2cccs2)cc1NC(=O)c1ccc(CCCC(=O)Nc2ccc(C3CC3N)cc2)cc1 (stereo not given) | > 100 µM
CCCCCCCCCCCCCCCCCCNc1nc(=O)n(C2CC(O)C(COP(=O)(O)OCC3OC(n4ccc(N)nc4=O)C(O)C3O)O2)cc1F (stereo not given) | > 100 µM
CC1=C(C(=O)Nc2cc(Cl)c3[nH]ncc3c2)C(c2ccc(C(F)(F)F)cc2)CC(=O)N1 (stereo not given) | > 25 µM
NC(=O)CNC(=O)C1CCCN1C(=O)C1CCCCNOC(=O)CCC(NC(=O)OCC2c3ccccc3-c3ccccc32)C(=O)NC(Cc2c[nH]c3ccccc23)C(=O)N1 (stereo not given) (Fmoc-EW[X34]PG-NH2; ester 1-3; configuration not given here) | > 100 µM
COc1cc(C(=O)CC2OC(=O)C(Cl)=C2Cl)ccc1Cl (stereo not given) | > 100 µM
Cc1nc2[nH]ncn2c(=O)c1CCCl | > 10 µM
O=C(CC(=O)c1cccc2ccccc12)C(=O)NC1C2CC3CC(C2)CC1C3 (stereo not given) | > 100 µM
C[N+](C)(C)c1cc2c(nn1)Nc1ccccc1S2 | 81.2 µM
COC(=O)C(Br)C1CCc2ccccc21 (stereo not given) | > 100 µM
C=C(C(=C)N1N=NC2C3CCC(C3)C21)N1N=NC2C3CCC(C3)C21 (stereo not given) | > 100 µM
CC(=O)O[C@H](C[C@H](C(C)C)N(C)C(=O)[C@@H](NC(=O)[C@H]1CCCN1C)C(C)C)c1nc(C(=O)N[C@@H](Cc2ccccc2)C[C@H](C)C(=O)O)c(C)s1 | > 16.7 µM

* * *

- Test system: NCI-H23 lung
- testSummary: NCI tumour cell line growth inhibition, 48 h
measurementKind: TGI

compound | measurementKind | endpointValue
Cn1c2ccccc2c(=O)c2cccc(C(=O)NCC(=O)O)c21 | TGI | > 100 µM
CCOC(=O)c1cnc2c(ccc3ncccc32)c1NCCCN(CC)CC | TGI | > 100 µM
O=C1/C(=C/c2ccc(Oc3ccccc3)cc2)N=C(c2ccccc2)N1c1ccc(S(=O)(=O)Nc2nccs2)cc1 | TGI | > 100 µM
CO/N=C(\COc1ccc2oc(-c3ccccc3)cc(=O)c2c1)c1ccc(OC)cc1 | TGI | > 100 µM
CN(C)CCNC(=O)Cn1cnc2cccc([N+](=O)[O-])c2c1=O | TGI | > 100 µM
CC(=O)OC[C@@]12Cc3ccc(C)c(O)c3[C@]1(C)[C@@H](OC(C)=O)[C@]1(O)[C@H]([C@@H](OC(=O)c3ccccc3)[C@@H](C)[C@H]1OC(C)=O)[C@H]2OC(C)=O | TGI | > 50 µM
C/C=C1\CN2CCc3c([nH]c4ccccc34)C2C=C1CCO (stereo not given) | TGI | > 340 µM
CC(C)Oc1cccc(N2C(=NCCc3c[nH]c4ccccc34)Nc3ccncc3S2(=O)=O)c1 | TGI | > 100 µM
CC(=O)O[C@H](C[C@H](C(C)C)N(C)C(=O)[C@@H](NC(=O)[C@H]1CCCN1C)C(C)C)c1nc(C(=O)N[C@@H](Cc2ccccc2)C[C@H](C)C(=O)O)c(C)s1 | TGI | > 16.7 µM
CCc1cc(CCC(=O)Nc2ccccc2[N+](=O)[O-])[nH]c(=S)n1 | TGI | > 100 µM

* * *

Measured TGI values are reported for all entries that follow.
- Test system: COLO 205 colon
- testSummary: NCI tumour cell line growth inhibition, 48 h
Where a SMILES comes first, the peptide text is derived from it. [ ]: non-standard residue; d: D form. The star is where a group is joined. dTle = CC(C)(C)[C@@H](N)C(=O)O; 4Abz = Nc1ccc(C(=O)O)cc1; NHOH = ON*

molecule | TGI
CC(=O)n1cc(OP(=O)(Oc2ccccc2)Oc2ccccc2)c2ccccc21 | 27.2 µM
CCOC(=O)c1cnc2sc3ccc4ccccc4c3n2c1=O | > 100 µM
CC(C)(C)OC(=O)NCCNCCNc1ccccc1 | > 100 µM
CC(CN(C)C)Oc1ccccc1NC1=C(Cl)C(=O)C(Nc2ccccc2OC(C)CN(C)C)=C(Cl)C1=O (stereo not given) | 0.359 µM
O=S(=O)(SC1=NCCN1)c1cccc2ccccc12 | 34.4 µM
Nc1ccc(C23CC4CC(C2)CC(c2ccc(N)cc2)(C4)C3)cc1 | 52.5 µM
N#Cc1c(N)nc(N2CCOCC2)c(C#N)c1-c1ccccn1 | > 100 µM
CC1(C)N=C(N)N=C(N)N1c1cccc(C(=O)Nc2ccc(S(=O)(=O)F)cc2)c1 | > 100 µM
CC1=C(C(=O)Nc2cc(Cl)c3[nH]ncc3c2)C(c2ccc(C(F)(F)F)cc2)CC(=O)N1 (stereo not given) | > 25 µM
O=C(Nc1cccc(Cl)c1)c1cccc(NC2=C(Cl)C(=O)N(Cc3ccccc3)C2=O)c1 | > 100 µM
Clc1ccc(OCc2nnc3sc(-c4ccc(-c5ccc(Cl)cc5Cl)o4)nn23)cc1 | > 100 µM
C[C@@H](NC(=O)[C@H](NC(=O)[C@@H]1CCCN1C(=O)CNC(=O)c1ccc(N)cc1)C(C)(C)C)C(=O)NO (H-[4Abz]GP[dTle][dA]-{NHOH}) | > 100 µM
O=c1[nH]c(=O)n(C2CC(O)C(CO)O2)c2nc3ccc4cc5ccccc5cc4c3nc12 (stereo not given) | > 100 µM
COc1cc2c(cc1OC)C(=O)C1(C2)[C@H](c2ccccc2)C2C(=O)c3cc(OC)c(OC)cc3C2[C@H]1c1ccccc1 (stereo not given in full) | > 100 µM
N#CC(C#N)N=Nc1ccc(-c2nc3ccccc3o2)cc1 | 23.9 µM

* * *

Measured TGI values are reported for all entries that follow.
- Tested on: UO-31 renal
- testSummary: NCI tumour cell line growth inhibition, 48 h

smilesRepresentation | studyTarget | TGI
COC(=O)c1cc2c3ccccc3[nH]c2c2sccc12 | UO-31 renal | > 100 µM
Cc1cc2c(C(N)=O)c(N)n(-c3c(C)ccc(O)c3C)c2nc1C | UO-31 renal | 14.9 µM
O=C(CCn1[nH]c(=O)c(Cl)c(Cl)c1=O)NNC(=O)C[n+]1ccccc1 | UO-31 renal | > 100 µM
O=C(Nc1cccc(Cl)c1)c1cccc(NC2=C(Cl)C(=O)N(Cc3ccccc3)C2=O)c1 | UO-31 renal | > 100 µM

* * *

- Test system: K-562 leukemia
- testSummary: NCI tumour cell line growth inhibition, 48 h
Measured TGI values are reported for all entries that follow.
measurementKind: TGI

molecule | endpointValue
O=C1OC(=O)C2CCCC3CCCC1C32 (stereo unspecified) | > 100 µM
CN(C)CCNC(=O)Cn1cnc2cccc([N+](=O)[O-])c2c1=O | > 100 µM
CC(=O)n1cc(OP(=O)(Oc2ccccc2)Oc2ccccc2)c2ccccc21 | 67.4 µM
COc1nc2c(c(=O)n1C)N=C(c1ccccc1)[C@H](C(CC(=O)c1ccccc1)c1ccccc1)C(c1ccccc1)N2 (stereo partly specified) | > 100 µM
COc1ccc2c3c(c(C(=O)c4ccccc4)oc13)CCC2 | > 100 µM
COc1cc(C2=N/C(=C/c3cccs3)C(=O)O2)cc(OC)c1OC | > 100 µM

* * *

Measured GI50 values are reported for all entries that follow.
- Test system: UO-31 renal
- testSummary: NCI tumour cell line growth inhibition, 48 h

compound | GI50
NS(=O)(=O)NCCNc1nonc1C(=Nc1ccc(F)c(Br)c1)NO | 24.8 µM
CC1(N)CCN(c2cnc(-c3cccc(Cl)c3Cl)c(N)n2)CC1 | 3.3 µM
C=C1C(=O)O[C@H]2[C@H]1CC/C(COC(=O)C(C)c1ccc(CC(C)C)cc1)=C\CC[C@@]1(C)O[C@@H]21 (stereo partly specified) | 1.28 µM
CC1=C(C(=O)Nc2cc(Cl)c3[nH]ncc3c2)C(c2ccc(C(F)(F)F)cc2)CC(=O)N1 (stereo unspecified) | 2 µM
N#Cc1c(N)nc(N2CCOCC2)c(C#N)c1-c1ccccn1 | > 100 µM
O=C(NO)[C@@H](Cc1ccccc1)NS(=O)(=O)c1ccc(-c2ccccc2)cc1 | 13.2 µM
CC([C@H]1CCC2C3CCC4C[C@@H](N)CC[C@]4(C)C3CC[C@@]21C)N(C)C (stereo partly specified) | 2.34 µM
O=C(O)c1c(=O)cccc2ssc12 | 1.66 µM
CC1(C)NCCC[C@]2(C)[C@H]3CC[C@@H]4[C@H]5[C@H](C(=O)/C=C/c6ccccn6)CC[C@]5(CO)CC[C@@]4(C)[C@]3(C)CC[C@@H]12 | 5.7 µM
COC(=O)c1cc2c3ccccc3[nH]c2c2sccc12 | 7.59 µM
OCCNc1nc(Nc2ccc(Cl)c(Cl)c2)nc2ccccc12 | 4.23 µM
